# System: Hepatitis C virus subtype 1b
# Assay Summary: Inhibition of recombinant full length HCV genotype 1b NS3 helicase activity assessed as reduction in 5'-FAM labeled dsDNA substrate unwinding at 30 uM preincubated for 10 mins followed by MgCl2/ATP addition and measured after 30 mins by real-time fluorescence assay
Calls of active or inactive are those of the source. No cut-off for these calls is given here.
Possible outcomes: active, inactive

Structure As Smiles	Class Assignment
O=C1NC(=S)NC(=O)C1=Cc1cn(C(=O)c2cccc3ccccc23)c2ccc(Cl)cc12	inactive
O=C1NC(=S)NC(=O)C1=Cc1cn(C(=O)c2ccc3ccccc3c2)c2ccccc12	active
COc1ccc2c(c1)c(C=C1C(=O)NC(=S)NC1=O)cn2C(=O)c1cccc2ccccc12	active
COc1ccc2c(c1)c(C=C1C(=O)NC(=S)NC1=O)cn2C(=O)c1ccc2ccccc2c1	active
O=C1NC(=S)NC(=O)C1=Cc1cn(C(=O)c2ccc3ccccc3c2)c2ccc(Cl)cc12	inactive

---

# Assay Summary: Inhibition of recombinant full length HCV genotype 1b NS3 interaction with 3'-FAM labeled ssDNA assessed as Kd for NS3-ssDNA complex at 25 uM by fluorescence polarization assay (reference value: 3.3 +/- 0.2 nM)
# Parameters: species or system Hepatitis C virus subtype 1b

Structure As Smiles	Unit Abbreviation	Kd
COc1ccc2c(c1)c(C=C1C(=O)NC(=S)NC1=O)cn2C(=O)c1cccc2ccccc12	nM	5.7
O=C1NC(=S)NC(=O)C1=Cc1cn(C(=O)c2ccc3ccccc3c2)c2ccccc12	nM	3.1
COc1ccc2c(c1)c(C=C1C(=O)NC(=S)NC1=O)cn2C(=O)c1ccc2ccccc2c1	nM	2.8
